Biological target: human mGluR5d (Homo sapiens, UniProt P41594)
Sequence (P41594 21-942 isoform P41594-3 limits assumed): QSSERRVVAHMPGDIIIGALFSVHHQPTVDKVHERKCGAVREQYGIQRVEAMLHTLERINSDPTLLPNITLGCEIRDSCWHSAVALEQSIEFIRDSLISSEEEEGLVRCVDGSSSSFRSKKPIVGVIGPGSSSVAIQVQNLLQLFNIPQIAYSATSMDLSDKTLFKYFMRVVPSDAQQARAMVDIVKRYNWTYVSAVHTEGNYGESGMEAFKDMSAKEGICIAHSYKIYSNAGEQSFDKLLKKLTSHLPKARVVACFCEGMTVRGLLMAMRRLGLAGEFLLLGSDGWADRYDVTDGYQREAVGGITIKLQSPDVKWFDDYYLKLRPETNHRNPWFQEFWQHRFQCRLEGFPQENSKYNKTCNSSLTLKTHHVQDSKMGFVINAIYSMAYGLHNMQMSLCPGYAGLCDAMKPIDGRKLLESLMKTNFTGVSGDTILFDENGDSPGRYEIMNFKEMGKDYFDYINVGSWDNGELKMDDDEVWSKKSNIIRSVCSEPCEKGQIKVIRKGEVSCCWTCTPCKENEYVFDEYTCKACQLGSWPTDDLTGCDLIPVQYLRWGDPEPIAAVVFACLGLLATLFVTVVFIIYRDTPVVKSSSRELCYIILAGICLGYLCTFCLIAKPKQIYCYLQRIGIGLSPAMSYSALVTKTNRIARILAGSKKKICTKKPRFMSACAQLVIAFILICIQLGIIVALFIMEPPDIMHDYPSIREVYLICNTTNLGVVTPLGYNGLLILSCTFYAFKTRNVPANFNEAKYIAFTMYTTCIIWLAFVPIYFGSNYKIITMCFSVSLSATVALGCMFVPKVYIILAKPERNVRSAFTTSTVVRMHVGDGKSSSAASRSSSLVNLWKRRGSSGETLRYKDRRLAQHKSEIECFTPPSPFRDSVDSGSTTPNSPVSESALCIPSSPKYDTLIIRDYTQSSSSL
Assay: Functional assessment of mGluR5 antagonism in cell lines expressing mGluR5d (FLIPR calcium mobilization / IP3 turnover; assay not given)
Conditions: cells expressing human mGluR5d; assay (FLIPR or IP3) not stated
value.type: EC50 (nM)

Answered examples (4):
# compound, EC50 / nM
data = [
    ("N#Cc1cccnc1N1CCN2[C@@H](CC[C@@H]2c2cn(-c3cccc(F)c3)nn2)C1 (racemic)", 219),
    ("N#Cc1cccc(-c2cc([C@H]3CCC[C@H]4CN(c5nccnc5C#N)CCN43)no2)c1 (racemic)", 159),
    ("N#Cc1nccnc1N1CCN2[C@@H](CC[C@@H]2c2nnn(-c3cccc(Cl)c3)n2)C1 (racemic)", 10),
    ("Cc1cccc(-n2nnc([C@H]3CC[C@H]4CN(c5ncccc5C#N)CCN43)n2)c1 (racemic)", 16),
]

A. N#Cc1ccc(N2CCN3[C@@H](CC[C@@H]3c3cc(-c4cccc(Cl)c4)on3)C2)nc1 (racemic)
B. N#Cc1nccnc1N1CCN2[C@@H](CC[C@@H]2c2cc(-c3cccc(Cl)c3)no2)C1 (racemic)
Problem: In terms of reported EC50, does A or B have the smaller number? Give the label under which the chosen entry appears.
Solution: B
(B: 377 nM, A: 2410 nM)
